Tested on: MIA PaCa-2 cells
assay_text: Growth inhibition activity on KRAS-G12C mutant cell line (MIA PaCa-2)
Assay type: cell-based
conditions_used: Homo sapiens, 72 h; MIA PaCa-2, 3-day culture, CellTiter-Glo 3D
Recorded IC50 by entry
property_name: IC50 (nM)

>>> print(df.to_string())
                                    compound  property_name  unit  measured
 0  Cc1cc2c(cc1-c1cccn3c(C(=O)c4ccc(NC(=O)/C=C/CNC(C)(C)C)c(C#N)c4)ccc13)ncn2C [Example 5]           IC50    nM        80
 1  CO[C@H]1CC[C@H](NC/C=C/C(=O)Nc2ccc(C(=O)c3csc4c(-c5cc6ncn(C)c6cc5C)cccc34)cc2C#N)CC1 [Example 56]           IC50    nM       350
 2  CO[C@H]1CC[C@H](NC/C=C/C(=O)Nc2c(F)cc(C(=O)c3ccc4c(-c5cc6ncn(C)c6cc5C(F)(F)F)cccn34)cc2F)CC1 [Example 70]           IC50    nM        72
 3  CO[C@H]1CC[C@H](NC/C=C/C(=O)Nc2ccc(C(=O)c3c[nH]c4c(-c5cc6ncn(C)c6cc5C(F)(F)F)cccc34)cc2C#N)CC1 [Example 8]           IC50    nM        52
 4  CO[C@H]1CC[C@H](NC/C=C/C(=O)Nc2ccc(C(=O)c3ccc4c(-c5cc6nc(C)n(C)c6cc5C(F)(F)F)cccn34)cc2C#N)CC1 [Example 7]           IC50    nM        49
 5  Cn1cnc2cc(-c3cccn4c(C(=O)c5cc(F)c(NC(=O)/C=C/CNC(C)(C)C)c(F)c5)ccc34)c(C(F)(F)F)cc21 [Example 49]           IC50    nM        75
 6  COc1cc2c(cc1-c1cccn3c(C(=O)c4ccc(NC(=O)/C=C/CN[C@H]5CC[C@H](OC)CC5)c(C#N)c4)ccc13)ncn2C [Example 81]           IC50    nM        70
 7  Cn1cnc2cc(-c3cccn4c(C(=O)c5cc(F)c(NC(=O)/C=C/CNC(C)(C)C)c(F)c5)cnc34)c(C(F)(F)F)cc21 [Example 67]           IC50    nM       560
 8  Cn1cnc2cc(-c3cccn4c(C(=O)c5ccc(NC(=O)/C=C/[C@@H]6CCCN6)c(C#N)c5)ccc34)c(C(F)(F)F)cc21 [Example 44]           IC50    nM       350
 9  CCc1nc2cc(-c3cccc4c3CCN4C(=O)c3ccc(NC(=O)/C=C/CN[C@H]4CC[C@H](N5CCCC5)CC4)c(C#N)c3)c(C(F)(F)F)cc2n1C [Example 29]           IC50    nM       410
10  Cc1cc2c(ncn2C)c(Cl)c1-c1cccn2c(C(=O)c3ccc(NC(=O)/C=C/CNC(C)(C)C)c(C#N)c3)ccc12 [Example 59]           IC50    nM        64
11  CCc1nc2cc(-c3cccc4c3CCN4C(=O)c3ccc(NC(=O)/C=C/CNC4CCN(C(C)C)CC4)c(C#N)c3)c(C(F)(F)F)cc2n1C [Example 30]           IC50    nM       370
